Recorded values, source patent US4828849A.

- targetOrSystem: glucosyl transferase
- methodSummary: Assay for the inhibition of glucosyl transferase activity (14C-sucrose incorporation into glucan)
- cond: 50% inhibition of glucosyl transferase activity; 0.05M sodium acetate buffer, pH 5.5, 37° C.; read-out: 50% Inhibition Concentration
Structures can show the parent of a compound that is named as a salt.
recordedMetric: pIC50
For clarity, pIC50 is expressed as the negative log10 of concentration in mol/L.

Quick one: pIC50 of CCCCCCCCCCCCCCCC(=O)N(C)CCS(=O)(=O)O [Surfactant 1, sodium salt] ?
3.00

Name the reported pIC50 value associated with the molecule CCCCCCCC/C=C\CCCCCCCC(=O)N(C)CCS(=O)(=O)O [Surfactant 2, N--methyl-N--oleolytaurine sodium salt]
3.00
